For each entry below, report its AC50 value.
# measuredOn: D(1A) dopamine receptor (Homo sapiens)
# Sequence (P21728 whole entry): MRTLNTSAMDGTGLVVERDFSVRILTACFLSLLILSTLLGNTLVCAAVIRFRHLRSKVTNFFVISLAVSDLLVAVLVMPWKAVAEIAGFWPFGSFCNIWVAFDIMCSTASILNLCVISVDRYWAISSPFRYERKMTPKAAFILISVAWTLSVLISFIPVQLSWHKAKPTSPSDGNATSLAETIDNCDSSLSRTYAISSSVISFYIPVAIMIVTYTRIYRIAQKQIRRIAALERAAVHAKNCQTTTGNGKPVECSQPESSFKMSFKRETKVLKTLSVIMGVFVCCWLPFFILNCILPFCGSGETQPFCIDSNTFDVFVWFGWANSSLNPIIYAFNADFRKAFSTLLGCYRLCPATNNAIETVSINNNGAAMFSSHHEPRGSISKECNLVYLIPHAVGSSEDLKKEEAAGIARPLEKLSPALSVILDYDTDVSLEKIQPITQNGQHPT
# Assay type: functional, cell-based

compound	AC50
CO[C@H]1C[C@H](O[C@H]2CC[C@@]3(C)[C@H](CC[C@@H]4[C@@H]3CC[C@]3(C)[C@@H](C5=CC(=O)OC5)[C@@H](OC(C)=O)C[C@]43O)C2)O[C@@H](C)[C@@H]1O	> 30 µM
CC(C)NC(=N)NC(=N)Nc1ccc(Cl)c(Cl)c1	> 30 µM
COc1cc(N)c(Cl)cc1C(=O)NC1CCN(CCCOc2ccc(F)cc2)CC1OC (stereo not drawn) [CISAPRIDE]	> 10 µM
COc1ccc(C2C(=O)c3ccccc3C2=O)cc1	> 30 µM
Fc1ccc([C@@H]2CCNC[C@H]2COc2ccc3c(c2)OCO3)cc1	> 10 µM
COC(=O)C1=C(C)NC(C)=C(C(=O)OCCN2CCN(C(c3ccccc3)c3ccccc3)CC2)C1c1cccc([N+](=O)[O-])c1 (stereo not drawn)	> 30 µM
CC(C)(Oc1ccc(CCNC(=O)c2ccc(Cl)cc2)cc1)C(=O)O [BEZAFIBRATE]	> 10 µM

Here is another compound to look at.
Q. Form field: reported AC50 of CC(=O)Nc1ccc(CC(=O)O)cc1
A. > 30 µM

---

For each entry below, report its AC50 value.
# measuredOn: Beta-1 adrenergic receptor (Homo sapiens, UniProt P08588)
# Sequence (P08588 whole entry): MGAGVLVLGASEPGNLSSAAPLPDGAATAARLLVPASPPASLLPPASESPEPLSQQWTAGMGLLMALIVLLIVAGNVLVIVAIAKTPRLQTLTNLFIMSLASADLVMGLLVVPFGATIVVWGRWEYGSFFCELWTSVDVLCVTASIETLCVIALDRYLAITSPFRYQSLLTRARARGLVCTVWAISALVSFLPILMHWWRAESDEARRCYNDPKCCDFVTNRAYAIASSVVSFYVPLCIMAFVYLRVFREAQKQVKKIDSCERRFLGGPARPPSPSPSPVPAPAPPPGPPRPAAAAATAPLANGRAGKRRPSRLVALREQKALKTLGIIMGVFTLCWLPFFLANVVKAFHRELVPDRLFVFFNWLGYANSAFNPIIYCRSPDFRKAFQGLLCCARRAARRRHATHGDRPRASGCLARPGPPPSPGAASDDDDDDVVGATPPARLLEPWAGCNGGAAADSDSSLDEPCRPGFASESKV
# Type: functional

compound	AC50
CO/N=C(\C(=O)N[C@@H]1C(=O)N2C(C(=O)O)=C(CSc3nc(=O)c(=O)[nH]n3C)CS[C@H]12)c1csc(N)n1 [CEFTRIAXONE]	> 30 µM
C[C@]12C=CC(=O)C=C1CC[C@@H]1[C@@H]2CC[C@]2(C)OC(=O)CC[C@@H]12 [TESTOLACTONE]	> 10 µM
CCCNC(=O)NS(=O)(=O)c1ccc(Cl)cc1 [CHLORPROPAMIDE]	> 10 µM
CCN1CCCC1CNC(=O)c1cc(S(=O)(=O)CC)ccc1OC (centres undefined) [SULTOPRIDE]	> 30 µM
CCC1(c2ccc(N)cc2)CCC(=O)NC1=O (centres undefined) [AMINOGLUTETHIMIDE]	> 30 µM
O=C(/C=C/c1cccc(S(=O)(=O)Nc2ccccc2)c1)NO [BELINOSTAT]	> 10 µM
COC(=O)C1=C(C)NC(C)=C(C(=O)OCCN2CCN(C(c3ccccc3)c3ccccc3)CC2)C1c1cccc([N+](=O)[O-])c1 (centres undefined) [MANIDIPINE 6300]	> 30 µM
CC(CN(C)C)C(C)(O)Cc1ccc(Cl)cc1 (centres undefined) [CLOBUTINOL]	> 30 µM

Dear reader, for each entry below, please note its AC50.
1. CCCc1nc2c(C)cc(-c3nc4ccccc4n3C)cc2n1Cc1ccc(-c2ccccc2C(=O)O)cc1
2. C/C=C(/C(=C/C)c1ccc(O)cc1)c1ccc(O)cc1 [DIENESTROL]
3. OC[C@H]1O[C@@H](n2cnc3c2NC=NC[C@H]3O)C[C@@H]1O [PENTOSTATIN]
4. O=C(CCCN1CCC(O)(c2ccc(Br)cc2)CC1)c1ccc(F)cc1 [BROMPERIDOL]
5. O=S1(=O)CCN(CN2CCS(=O)(=O)NC2)CN1 [TAUROLIDINE]
6. CC(C(=O)O)c1ccc2oc(-c3ccc(Cl)cc3)nc2c1 (centres undefined) [BENOXAPROFEN]
7. Cc1cc(=O)n(-c2ccccc2)n1C [ANTIPYRINE]

A.
1: > 30 µM; 2: > 10 µM; 3: > 30 µM; 4: > 30 µM; 5: > 30 µM; 6: > 30 µM; 7: > 10 µM

Dear reader, for each entry below, please note its AC50.
1. CN(CCOc1ccc(CC2SC(=O)NC2=O)cc1)c1ccccn1 (centres undefined) [ROSIGLITAZONE]
2. CCCC(C)(COC(N)=O)COC(N)=O [MEPROBAMATE]
3. CC(C)c1cccc(C(C)C)c1O [PROPOFOL]
4. CN(C)Cc1nnc2n1-c1ccc(Cl)cc1C(c1ccccc1)=NC2 [ADINAZOLAM]

A.
["> 30 µM", "> 10 µM", "> 30 µM", "> 10 µM"]

---

# measuredOn: Beta-2 adrenergic receptor (Homo sapiens, UniProt P07550)
# Sequence (P07550 whole entry): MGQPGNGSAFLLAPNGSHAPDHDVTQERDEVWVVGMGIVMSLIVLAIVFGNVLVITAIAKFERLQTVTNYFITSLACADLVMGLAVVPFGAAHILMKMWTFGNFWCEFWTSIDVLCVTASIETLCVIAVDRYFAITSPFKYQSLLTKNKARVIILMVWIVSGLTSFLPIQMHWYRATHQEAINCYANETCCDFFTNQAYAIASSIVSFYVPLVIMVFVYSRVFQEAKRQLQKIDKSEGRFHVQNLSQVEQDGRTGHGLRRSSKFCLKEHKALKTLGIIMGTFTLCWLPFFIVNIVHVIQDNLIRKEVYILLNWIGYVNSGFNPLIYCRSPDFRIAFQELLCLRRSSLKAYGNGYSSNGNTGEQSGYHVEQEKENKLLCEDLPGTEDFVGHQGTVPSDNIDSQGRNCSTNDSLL
observable: AC50

                                   compound  recordedresult
0            O=C(O)Cc1ccccc1Nc1c(Cl)cccc1Cl         > 10 µM
1  C[C@]12C/C(=C/O)C(=O)C[C@@H]1CC[C@@H]1[C@@H]2CC[C@@]2(C)[C@H]1CC[C@]2(C)O         > 30 µM
2  COC(=O)C1=C(C)NC(C)=C(C(=O)OCCN2CCN(C(c3ccccc3)c3ccccc3)CC2)C1c1cccc([N+](=O)[O-])c1 (centres undefined)         > 30 µM

Here is another compound to look at.
Q. Form field: reported AC50 of CN(C)Cc1nnc2n1-c1ccc(Cl)cc1C(c1ccccc1)=NC2
A. > 10 µM

---

# measuredOn: 3',5'-cyclic-AMP phosphodiesterase 4D (Homo sapiens)
# Sequence (Q08499 whole entry): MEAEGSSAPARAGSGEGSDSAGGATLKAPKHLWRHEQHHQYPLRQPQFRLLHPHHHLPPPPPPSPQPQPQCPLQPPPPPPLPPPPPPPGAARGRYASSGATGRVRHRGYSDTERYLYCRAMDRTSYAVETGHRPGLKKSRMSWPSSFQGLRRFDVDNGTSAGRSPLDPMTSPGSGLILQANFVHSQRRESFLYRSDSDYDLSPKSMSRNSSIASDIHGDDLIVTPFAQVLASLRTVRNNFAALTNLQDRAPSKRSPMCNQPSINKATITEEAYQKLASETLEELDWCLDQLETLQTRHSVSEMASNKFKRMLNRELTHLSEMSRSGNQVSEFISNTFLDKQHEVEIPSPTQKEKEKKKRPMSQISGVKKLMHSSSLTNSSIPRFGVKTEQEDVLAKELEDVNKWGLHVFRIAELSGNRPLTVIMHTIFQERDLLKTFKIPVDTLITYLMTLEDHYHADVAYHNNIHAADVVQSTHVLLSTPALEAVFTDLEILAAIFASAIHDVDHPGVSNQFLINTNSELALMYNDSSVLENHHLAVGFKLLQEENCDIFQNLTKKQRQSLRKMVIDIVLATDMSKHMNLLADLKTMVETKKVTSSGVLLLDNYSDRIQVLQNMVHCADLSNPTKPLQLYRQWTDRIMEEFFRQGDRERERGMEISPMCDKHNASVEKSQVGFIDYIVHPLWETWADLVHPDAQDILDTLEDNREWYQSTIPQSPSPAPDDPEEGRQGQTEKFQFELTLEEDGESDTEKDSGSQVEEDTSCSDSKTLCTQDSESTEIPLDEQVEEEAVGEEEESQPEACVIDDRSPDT
# Type: functional
observable: AC50

Example entries begin here.
compound	AC50
Cc1onc(-c2c(F)cccc2Cl)c1C(=O)N[C@@H]1C(=O)N2[C@@H]1SC(C)(C)[C@@H]2C(=O)O	> 30 µM
C=C1c2cccc(O)c2C(=O)C2=C(O)[C@]3(O)C(=O)C(C(N)=O)=C(O)[C@@H](N(C)C)[C@@H]3[C@@H](O)[C@H]12	> 30 µM
COc1cc(C(=O)NC2CCCNC2)cc(OC)c1OC (stereo unspecified) [TROXIPIDE]	> 30 µM
O=C(O)Cc1ccccc1Oc1ccc(Cl)cc1Cl	> 10 µM
CCCCOc1ccc(C(=O)CCN2CCCCC2)cc1	11 µM
CC(C)[C@@H](C)/C=C/[C@@H](C)[C@H]1CC[C@H]2/C(=C/C=C3\C[C@@H](O)CC[C@@H]3C)CCC[C@]12C [DIHYDROTACHYSTEROL]	> 30 µM
CC[C@H](C)C(=O)O[C@H]1C[C@@H](C)C=C2C=C[C@H](C)[C@H](CC[C@@H]3C[C@@H](O)CC(=O)O3)[C@H]21	> 30 µM
CCN1CCCC1CNC(=O)c1cc(S(=O)(=O)CC)ccc1OC (stereo unspecified) [SULTOPRIDE]	> 30 µM

Dear reader, for each entry below, please note its AC50.
1. C[C@@H]1C[C@H]2[C@@H]3C[C@H](F)C4=CC(=O)C=C[C@]4(C)[C@@]3(F)[C@@H](O)C[C@]2(C)[C@@]1(OC(=O)c1ccco1)C(=O)SCF [FLUTICASONE FUROATE]
2. Cc1ccccc1N1C(=O)c2cc(S(N)(=O)=O)c(Cl)cc2NC1C (stereo unspecified)
3. COc1ccc([C@@H]2CC(=O)c3c(O)cc(O)cc3O2)cc1O

A.
> 30 µM
> 30 µM
30 µM

---

# measuredOn: Alpha-2A adrenergic receptor (Homo sapiens, UniProt P08913)
# Sequence (P08913 whole entry): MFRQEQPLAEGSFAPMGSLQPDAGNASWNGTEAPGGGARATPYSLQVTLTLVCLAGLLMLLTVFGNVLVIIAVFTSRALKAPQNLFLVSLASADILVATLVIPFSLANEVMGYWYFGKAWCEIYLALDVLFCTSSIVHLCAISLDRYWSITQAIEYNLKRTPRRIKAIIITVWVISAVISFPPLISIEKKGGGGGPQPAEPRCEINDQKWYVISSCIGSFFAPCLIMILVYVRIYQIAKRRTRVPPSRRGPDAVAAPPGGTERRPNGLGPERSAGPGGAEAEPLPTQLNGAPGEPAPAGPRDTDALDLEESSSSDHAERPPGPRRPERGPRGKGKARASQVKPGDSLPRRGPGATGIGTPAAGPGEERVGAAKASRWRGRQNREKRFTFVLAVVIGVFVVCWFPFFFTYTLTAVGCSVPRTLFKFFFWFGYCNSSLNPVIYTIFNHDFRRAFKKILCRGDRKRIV
# Assay type: functional, cell-based
Where a SMILES comes first, the peptide text is derived from it. [ ]: non-standard residue; d: D form. pGlu = O=C1CC[C@@H](C(=O)O)N1; Thz = O=C(O)[C@@H]1CSCN1
For each entry below, report its AC50 value.

Example entries begin here.
compound	AC50
COc1cc(C(C)=O)ccc1OCCCN1CCC(c2noc3cc(F)ccc23)CC1	> 30 µM
CO/N=C(\C(=O)N[C@@H]1C(=O)N2C(C(=O)O)=C(CSc3nc(=O)c(=O)[nH]n3C)CS[C@H]12)c1csc(N)n1	> 30 µM
CCOC(=O)c1ncn2c1CN(C)C(=O)c1cc(F)ccc1-2	> 30 µM
CN(Cc1cnc2nc(N)nc(N)c2n1)c1ccc(C(=O)N[C@@H](CCC(=O)O)C(=O)O)cc1 [METHOTREXATE]	> 10 µM
CNCCc1ccc(OC(=O)C(C)C)c(OC(=O)C(C)C)c1	3.48 µM

Dear reader, for each entry below, please note its AC50.
1. CN(C)C/C=C/C(=O)Nc1cc2c(Nc3ccc(F)c(Cl)c3)ncnc2cc1O[C@H]1CCOC1
2. CC(C)N(CCCCOCC(=O)O)c1cnc(-c2ccccc2)c(-c2ccccc2)n1
3. NNC(=O)c1ccncc1

A.
1. > 30 µM
2. > 30 µM
3. > 30 µM

Dear reader, for each entry below, please note its AC50.
1. CCCNC(=O)NS(=O)(=O)c1ccc(Cl)cc1 [CHLORPROPAMIDE]
2. CCc1nc(N)nc(N)c1-c1ccc(Cl)cc1
3. O=C1CC[C@@H](C(=O)N2CSC[C@H]2C(=O)O)N1 [PIDOTIMOD] ([pGlu]-[Thz]-OH)
4. Cc1cccc(C)c1NC(=O)CC12CCCN1CCC2 [PILSICAINIDE]
5. CC(C)(Oc1ccc(CCNC(=O)c2ccc(Cl)cc2)cc1)C(=O)O [BEZAFIBRATE]
6. CC(CN(C)C)C(C)(O)Cc1ccc(Cl)cc1 (stereo not drawn)
7. CO[C@H]1C[C@H](O[C@H]2CC[C@@]3(C)[C@H](CC[C@@H]4[C@@H]3CC[C@]3(C)[C@@H](C5=CC(=O)OC5)[C@@H](OC(C)=O)C[C@]43O)C2)O[C@@H](C)[C@@H]1O

A.
1. > 10 µM
2. 9.8 µM
3. > 30 µM
4. > 30 µM
5. > 10 µM
6. > 10 µM
7. > 30 µM

Ref: ChEMBL document CHEMBL5291721
